Measured values drawn from PubChem BioAssay (NCI) for this set.

System: UO-31 renal
protocolNotes: NCI-60 one-dose screen, 48 h (100 = growth as untreated, 0 = no growth, -100 = all killed)
cond: 10 µM unless noted
This is part of a sample that, as a whole, favours compounds with a hit. Of some 83,000 tested, about 20% had one in any assay.
property: growth (%)
Just the number please, in %, no unit attached.

Below are worked cases with known answers.
molecule	testedTarget	property	unitTag	reportedMeasurement
C[C@@H]1CC[C@@H]2[C@@H]1[C@H](OC(=O)/C=C/c1ccccc1)[C@]1(CCCOCCOCCOCCOC(=O)CCCC[C@@H]3SC[C@@H]4NC(=O)N[C@@H]43)C[C@@H](OC(=O)CO)[C@@]2(C)O1	UO-31 renal	growth	%	83.1
CN(C)CCC(O)(Cc1ccccc1)c1ccccc1 (stereo unspecified)	UO-31 renal	growth	%	87.8
CN1C[C@@H](c2ccc(Cl)cc2)[C@]2(NC(=S)N(c3ccccc3)C2=O)[C@@]12C(=O)NC1C=CC(Br)=C[C@H]12 (stereo partly specified)	UO-31 renal	growth	%	40.4
COc1cc2ccccc2cc1C(=O)NC(=S)Nc1ccc(-c2nc3ccccc3[nH]2)cc1	UO-31 renal	growth	%	89.8
C[C@@H](C[C@H](CCOCc1cccnc1)c1ccccc1)c1cc2ccccc2o1	UO-31 renal	growth	%	75.9

Query: growth lookup needed for `Cc1cc(N2CCCCC2)nc(N(CCNc2ccnc3cc(Cl)ccc23)Cc2ccccn2)n1` , thanks.
Reply: 23.7

Query: growth lookup needed for O=C(NCCOCCOCCNc1cccc2c1C(=O)N(C1CCCNC1=O)C2=O)c1cc2c(o1)C(=O)c1ccccc1C2=O (stereo unspecified) , thanks.
Reply: -19.8

Query: growth lookup needed for `Cc1cc(=O)[nH]c(N/N=C/c2cc(Br)ccc2O)n1` , thanks.
Reply: -3.92

Query: growth lookup needed for `COc1cc(CNC(=O)/C=C/C=C/c2ccc3c(c2)OCO3)ccc1OCc1cn(-c2ccc(Cl)c(Cl)c2)nn1` , thanks.
Reply: 45.5

Query: growth lookup needed for `CC(=O)OCCc1ccccc1` , thanks.
Reply: 97.8

----------
System: SK-OV-3 ovarian
protocolNotes: NCI-60 one-dose screen, 48 h (100 = growth as untreated, 0 = no growth, -100 = all killed)
cond: 10 µM unless noted
About 83,000 compounds went through this panel and 20% of them were active in at least one assay; those are over-represented in the sample as a whole.
Please use 1 (yes) for growth under 60% and 0 (no) for everything else, ties included.

Please review the following examples before continuing.
compound	classLabel
COc1ccc(-c2nc3ncccn3c2/C=C/C(=O)c2cc(OC)c(OC)c(OC)c2)cc1	1 (yes)
C=C(CNCCc1ccc(O)cc1)[C@@H]1CC[C@]2(COC3CCCCO3)CC[C@]3(C)[C@H](CC[C@@H]4[C@@]5(C)CCC(N)C(C)(C)[C@@H]5CC[C@]43C)[C@@H]12 (stereo not given in full)	1 (yes)
Clc1ccc2c(NCCCN3CCN(c4nc(N5CCOCC5)nc5ccccc45)CC3)ccnc2c1	0 (no)
COc1ccc(-c2nc3ccccn3c2/C=C/C(=O)c2cc(OC)c(OC)c(OC)c2)cc1	0 (no)
Cc1c(C)c2c(c(C)c1NC(=O)/C=C\C(=O)O)CCC(C)(CCCC(C)CCCC(C)CCCC(C)C)O2 (stereo not given)	1 (yes)

Query: # check: growth < 60% for `Cn1ncc2c(Nc3ccc(Br)cc3)nc(Nc3ccc(Br)cc3)nc21`
Reply: 0 (no)

Query: # check: growth < 60% for `CS(=O)(=O)c1ccc(N/N=C/c2c(-c3ccc(S(C)(=O)=O)cc3)[nH]c3ccc(F)cc23)cc1`
Reply: 1 (yes)

Query: # check: growth < 60% for `CN1CCN(C2=C(Cl)C(=O)c3ccccc3C2=O)CC1`
Reply: 0 (no)

Query: # check: growth < 60% for `Clc1ccc2c(NCCCN3CCN(c4nc(-n5ccnc5)nc5ccccc45)CC3)ccnc2c1`
Reply: 0 (no)
